Hello, the source for this data is patent US10376481B2, in case you need it.

- assay-text: Plasma PK
- Type: in vivo, Sprague-Dawley rats
- assay-setup: Sprague-Dawley; rat plasma, oral gavage, nominal dose 15 mg/kg, samples 0.5-4 h, mean of n=3
assay-metric: AUC

INPUT: Tell us which AUC value is on record for CN(C)[C@H]1Cc2c(Cl)cc(Cl)cc2[C@@H]1Oc1ccc(S(=O)(=O)NCCOCCOCCNC(=O)NCCCCNC(=O)NCCOCCOCCNS(=O)(=O)c2ccc(O[C@H]3c4cc(Cl)cc(Cl)c4C[C@@H]3N(C)C)cc2)cc1 [Example 1]
OUTPUT: < 3 ng·h/mL

###

- tested-target: human NHE3 (Homo sapiens, UniProt P48764)
- Sequence (P48764 26-834): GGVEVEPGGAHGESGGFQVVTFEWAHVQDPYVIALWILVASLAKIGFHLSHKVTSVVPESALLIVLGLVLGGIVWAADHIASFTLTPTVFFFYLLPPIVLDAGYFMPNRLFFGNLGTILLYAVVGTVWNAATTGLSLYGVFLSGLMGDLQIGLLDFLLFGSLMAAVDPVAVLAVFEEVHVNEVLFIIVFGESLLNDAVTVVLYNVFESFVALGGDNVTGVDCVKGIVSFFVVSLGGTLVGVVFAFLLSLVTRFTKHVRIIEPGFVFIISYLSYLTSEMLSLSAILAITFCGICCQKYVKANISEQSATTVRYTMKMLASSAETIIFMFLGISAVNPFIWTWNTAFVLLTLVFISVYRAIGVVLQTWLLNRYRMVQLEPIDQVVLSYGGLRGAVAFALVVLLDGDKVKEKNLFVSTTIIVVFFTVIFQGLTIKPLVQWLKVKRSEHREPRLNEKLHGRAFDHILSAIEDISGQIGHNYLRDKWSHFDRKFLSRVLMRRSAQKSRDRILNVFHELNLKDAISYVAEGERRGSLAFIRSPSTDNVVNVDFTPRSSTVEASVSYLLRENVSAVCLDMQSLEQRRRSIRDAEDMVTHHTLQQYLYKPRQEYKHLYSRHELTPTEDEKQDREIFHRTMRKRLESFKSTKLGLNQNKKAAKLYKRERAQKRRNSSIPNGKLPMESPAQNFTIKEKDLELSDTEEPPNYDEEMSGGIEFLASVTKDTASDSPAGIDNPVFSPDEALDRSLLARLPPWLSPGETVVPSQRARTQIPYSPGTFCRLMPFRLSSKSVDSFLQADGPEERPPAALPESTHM
- assay-text: Cell-based assay of NHE-3 activity (persistent inhibition), human
- assay-setup: PS120 fibroblasts stably expressing human NHE3, 60 min incubation then washout; read-out: pIC50 (human Persistence assay) (converted)
- Protocol: The ability of compounds to inhibit human and rat NHE-3-mediated Na^+-dependent H^+ antiport after application and washout was measured using a modification of the pH sensitive dye method described above. PS120 fibroblasts stably expressing human NHE3 were obtained from Mark Donowitz (Baltimore, Md.). […] Changes in intracellular pH were monitored using a FLIPR Tetra® (Molecular Devices, Sunnyvale, Calif.) by excitation at λex 439 to 505 nm, and measuring BCECF fluorescence at λem 538 nm. […]
assay-metric: IC50

INPUT: Tell us which IC50 value is on record for N[C@@H]1CCCN([C@H]2Cc3c(Cl)cc(Cl)cc3[C@@H]2Oc2ccc(S(=O)(=O)NCCOCCOCCNC(=O)NCCCCNC(=O)NCCOCCOCCNS(=O)(=O)c3ccc(O[C@H]4c5cc(Cl)cc(Cl)c5C[C@@H]4N4CCC[C@@H](N)C4)cc3)cc2)C1
OUTPUT: < 100 nM

INPUT: Tell us which IC50 value is on record for O=C(NCCCCNC(=O)NCCOCCOCCNS(=O)(=O)c1ccc(O[C@H]2c3cc(Cl)cc(Cl)c3C[C@@H]2N2CCCCC2)cc1)NCCOCCOCCNS(=O)(=O)c1ccc(O[C@H]2c3cc(Cl)cc(Cl)c3C[C@@H]2N2CCCCC2)cc1
OUTPUT: > 1000 nM

###

Give measured IC50 for each item. Keep answers brief.
- tested-target: human NHE3 (Homo sapiens)
- assay-text: Cell-based assay of NHE-3 activity (pre-incubation inhibition), human
- assay-setup: PS120 fibroblasts stably expressing human NHE3, 10 min pre-incubation with 0-30 μM test compound; read-out: pIC50 (human Preincubation assay) (converted)
- Procedure: Rat and human NHE-3-mediated Na^+-dependent H^+ antiport was measured using a modification of the pH sensitive dye method originally reported by Paradiso (Proc. Natl. Acad. Sci. USA. (1984) 81(23): 7436-7440, which is hereby incorporated by reference in its entirety). […] Changes in intracellular pH were monitored using a FLIPR Tetra® (Molecular Devices, Sunnyvale, Calif.) by excitation at λex 439 to 505 nm, and measuring BCECF fluorescence at λem 538 nm. […]

INPUT: Tell us which IC50 value is on record for CN(C)[C@H]1Cc2c(Cl)cc(Cl)cc2[C@@H]1Oc1ccc(S(=O)(=O)NCCOCCOCCNC(=O)CCC(C)(N)CCC(=O)NCCOCCOCCNS(=O)(=O)c2ccc(O[C@H]3c4cc(Cl)cc(Cl)c4C[C@@H]3N(C)C)cc2)cc1 [Example 11]
OUTPUT: < 100 nM

INPUT: Tell us which IC50 value is on record for CN(C)[C@H]1Cc2ccc(F)cc2[C@@H]1Oc1ccc(S(=O)(=O)NCCOCCOCCNC(=O)NCCCCNC(=O)NCCOCCOCCNS(=O)(=O)c2ccc(O[C@H]3c4cc(F)ccc4C[C@@H]3N(C)C)cc2)cc1 [Example 22]
OUTPUT: < 100 nM
